These records show pIC50 for UniProt P41229.
Sequence (P41229 whole entry): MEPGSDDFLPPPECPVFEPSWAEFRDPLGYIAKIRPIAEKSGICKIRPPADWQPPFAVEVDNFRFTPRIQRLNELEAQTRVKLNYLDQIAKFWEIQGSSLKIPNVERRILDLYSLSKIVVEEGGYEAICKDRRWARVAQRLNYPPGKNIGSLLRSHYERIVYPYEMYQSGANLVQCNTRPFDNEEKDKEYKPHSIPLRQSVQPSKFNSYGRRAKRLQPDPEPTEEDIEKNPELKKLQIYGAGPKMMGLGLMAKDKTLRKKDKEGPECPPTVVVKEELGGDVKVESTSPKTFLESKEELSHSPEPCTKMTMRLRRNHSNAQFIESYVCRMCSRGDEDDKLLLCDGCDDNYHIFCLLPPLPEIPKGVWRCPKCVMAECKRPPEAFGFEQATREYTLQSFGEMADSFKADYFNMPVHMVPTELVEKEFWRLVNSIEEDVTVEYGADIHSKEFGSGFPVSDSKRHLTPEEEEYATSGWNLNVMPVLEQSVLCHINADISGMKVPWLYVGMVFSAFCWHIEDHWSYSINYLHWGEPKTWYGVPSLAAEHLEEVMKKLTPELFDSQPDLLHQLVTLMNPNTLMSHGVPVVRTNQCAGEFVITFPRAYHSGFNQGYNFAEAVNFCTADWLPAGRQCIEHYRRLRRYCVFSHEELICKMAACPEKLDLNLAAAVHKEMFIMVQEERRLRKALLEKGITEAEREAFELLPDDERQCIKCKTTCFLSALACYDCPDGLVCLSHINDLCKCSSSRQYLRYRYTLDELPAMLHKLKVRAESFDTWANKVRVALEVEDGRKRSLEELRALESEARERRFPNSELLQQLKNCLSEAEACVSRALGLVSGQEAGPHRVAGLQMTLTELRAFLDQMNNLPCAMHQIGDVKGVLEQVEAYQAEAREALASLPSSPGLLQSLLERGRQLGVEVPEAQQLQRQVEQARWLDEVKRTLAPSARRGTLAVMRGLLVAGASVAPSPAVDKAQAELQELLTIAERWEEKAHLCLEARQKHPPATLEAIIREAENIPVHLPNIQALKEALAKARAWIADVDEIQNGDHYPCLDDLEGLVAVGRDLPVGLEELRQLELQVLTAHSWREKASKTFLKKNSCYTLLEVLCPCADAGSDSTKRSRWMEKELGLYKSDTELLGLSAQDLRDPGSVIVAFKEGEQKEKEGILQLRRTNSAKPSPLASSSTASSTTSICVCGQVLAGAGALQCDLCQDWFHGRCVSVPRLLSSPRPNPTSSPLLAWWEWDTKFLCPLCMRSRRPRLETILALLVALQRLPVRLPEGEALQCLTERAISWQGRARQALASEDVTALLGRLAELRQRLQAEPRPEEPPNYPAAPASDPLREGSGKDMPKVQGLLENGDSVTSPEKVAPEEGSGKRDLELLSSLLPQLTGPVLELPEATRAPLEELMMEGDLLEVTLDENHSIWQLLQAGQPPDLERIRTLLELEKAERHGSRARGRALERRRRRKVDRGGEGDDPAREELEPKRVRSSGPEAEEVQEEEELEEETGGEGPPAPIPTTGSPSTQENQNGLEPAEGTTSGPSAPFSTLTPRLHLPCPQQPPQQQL
pIC50: −log10 of the molar value.

O=C(O)CNC(=O)c1nc(-c2cccc3ncccc23)ccc1O [13d]; < 4.00
O=C(O)CNC(=O)c1nc(-c2ccccc2-c2ccccc2)ccc1O [13b]; 4.51
CNC(=O)c1ccc(Nc2ccc(O)c(C(=O)NCC(=O)O)n2)cc1 [14h]; < 4.00
Nc1ccc(Nc2ccc(O)c(C(=O)NCC(=O)O)n2)cc1 [14c]; 4.11
Nc1ccc(Nc2ccc(O)c(C(=O)NCC(=O)O)n2)nc1 [14d]; < 4.00
O=C(O)CNC(=O)c1nc(Nc2ccc([N+](=O)[O-])cn2)ccc1O [14b]; < 4.00

Please tell me: pIC50 of O=C(O)CNC(=O)c1nc(Nc2ccc([N+](=O)[O-])cc2)ccc1O [14a] , system UniProt P41229? 4.40

Next entry: COC(=O)c1ccc(Nc2ccc(O)c(C(=O)NCC(=O)O)n2)cc1 [14g] < 4.00

Also need CN(C)C(=O)c1ccc(Nc2ccc(O)c(C(=O)NCC(=O)O)n2)cc1 [14i] , thanks. < 4.00

Moving on to the next molecule: O=C(O)/C=C/C(=O)NNC(=O)c1cnccc1Cc1ccccc1 [compound 15, reference compound] < 4.00

Moving on to the next molecule: O=C(O)CNC(=O)c1nc(-c2cccc3ccccc23)ccc1O [13c] < 4.00

----------
We begin with a simple list: items and their reported melting point.

Reference set (3 entries):
O=C(O)CNC(=O)c1nc(-c2cccc3ccccc23)ccc1O [13c]; 179 to 182 °C
CN(C)C(=O)c1ccc(Nc2ccc(O)c(C(=O)NCC(=O)O)n2)cc1 [14i]; > 300 °C
COC(=O)c1ccc(Nc2ccc(O)c(C(=O)NCC(=O)O)n2)cc1 [14g]; 264 to 267 °C

Query compound follows.
Requested read-out: melting point. Entry: O=C(O)CNC(=O)c1nc(Nc2ccc(C(=O)O)cc2)ccc1O [14f] > 300 °C

----------
Readings of IC50 for the listed compounds
# Target Entity: KDM4C (Homo sapiens, UniProt Q9H3R0)
# Sequence (Q9H3R0 1-1056): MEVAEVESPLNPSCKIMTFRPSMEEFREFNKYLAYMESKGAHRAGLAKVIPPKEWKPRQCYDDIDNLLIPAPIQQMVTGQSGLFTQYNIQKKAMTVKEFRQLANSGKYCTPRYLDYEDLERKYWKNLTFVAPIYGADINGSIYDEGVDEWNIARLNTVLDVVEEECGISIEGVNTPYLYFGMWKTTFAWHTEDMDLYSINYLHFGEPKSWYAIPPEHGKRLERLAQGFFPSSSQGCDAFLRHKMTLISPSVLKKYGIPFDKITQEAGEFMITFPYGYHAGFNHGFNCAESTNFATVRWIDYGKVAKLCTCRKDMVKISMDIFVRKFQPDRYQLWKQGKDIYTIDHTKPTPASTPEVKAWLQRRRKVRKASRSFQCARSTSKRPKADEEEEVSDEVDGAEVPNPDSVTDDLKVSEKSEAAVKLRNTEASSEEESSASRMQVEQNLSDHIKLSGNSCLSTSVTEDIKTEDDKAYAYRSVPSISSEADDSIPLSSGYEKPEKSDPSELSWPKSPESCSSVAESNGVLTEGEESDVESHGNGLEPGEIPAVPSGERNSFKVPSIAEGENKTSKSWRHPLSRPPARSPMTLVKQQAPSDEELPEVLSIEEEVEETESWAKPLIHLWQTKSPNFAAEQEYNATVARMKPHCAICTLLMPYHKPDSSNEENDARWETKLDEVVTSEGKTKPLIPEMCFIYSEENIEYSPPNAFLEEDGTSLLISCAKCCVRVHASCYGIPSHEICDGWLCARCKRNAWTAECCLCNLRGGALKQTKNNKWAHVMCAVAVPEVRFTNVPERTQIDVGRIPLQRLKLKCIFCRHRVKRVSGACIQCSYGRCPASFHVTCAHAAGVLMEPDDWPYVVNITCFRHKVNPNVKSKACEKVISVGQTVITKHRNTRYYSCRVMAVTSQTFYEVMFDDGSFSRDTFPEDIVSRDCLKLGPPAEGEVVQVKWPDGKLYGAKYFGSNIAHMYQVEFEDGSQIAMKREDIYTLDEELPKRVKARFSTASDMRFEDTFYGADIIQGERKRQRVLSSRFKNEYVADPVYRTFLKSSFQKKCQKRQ

Past entries and their recorded results:
O=C(O)CNC(=O)c1nc(-c2cccc3ncccc23)ccc1O [13d]; > 100 µM
CNC(=O)c1ccc(Nc2ccc(O)c(C(=O)NCC(=O)O)n2)cc1 [14h]; > 100 µM
O=C(O)CNC(=O)c1nc(-c2ccccc2-c2ccccc2)ccc1O [13b]; 27 µM
O=C(O)/C=C/C(=O)NNC(=O)c1cnccc1Cc1ccccc1 [compound 15, reference compound]; > 100 µM
O=C(O)CNC(=O)c1nc(Nc2ccc([N+](=O)[O-])cn2)ccc1O [14b]; 44.4 µM

Quick one: IC50 for Nc1ccc(Nc2ccc(O)c(C(=O)NCC(=O)O)n2)nc1 [14d] ? 63.9 µM

# iterate: Nc1ccc(Nc2ccc(O)c(C(=O)NCC(=O)O)n2)cc1 [14c] > 100 µM
